Values were extracted from patent US20170260531.

- TEST_TARGET: PDGF-BB (Homo sapiens) (UniProt P01127)
- PROCEDURE_TEXT: filter
- CONDITION_SET: Bn-dU; 2'-OMe at position 11
QUANTITY_KIND: Kd

Prompt: Look up Kd for this sequence: TTACGACTACGTTACACGCGTTTATAGCG [4149-8_51]
Completion: < 0.01 µM

---

- TEST_TARGET: PDGF-BB (Homo sapiens) (UniProt P01127)
- PROCEDURE_TEXT: filter
- CONDITION_SET: Bn-dU; 2'-OMe at position 17
QUANTITY_KIND: Kd

Prompt: Request - read-out Kd | tested on PDGF-BB (Homo sapiens) (UniProt P01127) | sequence TTACGACTACGTTACACGCGTTTATAGCG [4149-8_55]
Completion: < 10 nM

---

- TEST_TARGET: PDGF-BB (Homo sapiens) (UniProt P01127)
- PROCEDURE_TEXT: filter
- CONDITION_SET: Bn-dU; 2'-OMe at position 7
pKd: −log10 of the molar value.
QUANTITY_KIND: pKd

Prompt: I have this sequence here, TTACGACTACGTTACACGCGTTTATAGCG [4149-8_48] , and I need its recorded pKd.
Completion: > 8.00

---

- TEST_TARGET: PDGF-BB (Homo sapiens) (UniProt P01127)
- PROCEDURE_TEXT: filter
- CONDITION_SET: Bn-dU; 2'-OMe at position 9
pKd: −log10 of the molar value.
QUANTITY_KIND: pKd

Prompt: Please report the recorded pKd for TTACGACTACGTTACACGCGTTTATAGCG [4149-8_49] .
Completion: > 8.00

---

- TEST_TARGET: PDGF-BB (Homo sapiens) (UniProt P01127)
- PROCEDURE_TEXT: filter
- CONDITION_SET: Bn-dU; 2'-OMe at position 19
QUANTITY_KIND: Kd

Prompt: Given the sequence TTACGACTACGTTACACGCGTTTATAGCG [4149-8_57] , what is its reported Kd?
Completion: < 10 nM

---

- TEST_TARGET: PDGF-BB (Homo sapiens) (UniProt P01127)
- PROCEDURE_TEXT: filter
- CONDITION_SET: Bn-dU; 2'-OMe at position 27
QUANTITY_KIND: Kd

Prompt: I'm curious: which Kd was measured for TTACGACTACGTTACACGCGTTTATAGCG [4149-8_61] tested on PDGF-BB (Homo sapiens) (UniProt P01127)?
Completion: < 10 nM

---

- TEST_TARGET: PDGF-BB (Homo sapiens)
- PROCEDURE_TEXT: filter
- CONDITION_SET: Bn-dU; C3 at position 10
pKd: −log10 of the molar value.
QUANTITY_KIND: pKd

Prompt: Fill in the blank: the reported pKd of TTACGACTAGTTACACGCGTTTATAGCG [4149-8_73] is ____.
Completion: > 8.00

---

- TEST_TARGET: PDGF-BB (Homo sapiens) (UniProt P01127)
- PROCEDURE_TEXT: filter
- CONDITION_SET: Bn-dU; C3 at position 4
QUANTITY_KIND: Kd

Prompt: Param item = TTAGACTACGTTACACGCGTTTATAGCG [4149-8_67] ; retrieve measured Kd.
Completion: < 10 nM

---

- TEST_TARGET: PDGF-BB (Homo sapiens) (UniProt P01127)
- PROCEDURE_TEXT: filter
- CONDITION_SET: Bn-dU; 2'-OMe at position 20
QUANTITY_KIND: Kd

Prompt: Looking for the measured Kd of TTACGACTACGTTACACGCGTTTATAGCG [4149-8_58] , can you help?
Completion: < 10 nM

---

- TEST_TARGET: PDGF-BB (Homo sapiens) (UniProt P01127)
- PROCEDURE_TEXT: filter
- CONDITION_SET: Bn-dU; C3 at position 7
QUANTITY_KIND: Kd

Prompt: Observed Kd on PDGF-BB (Homo sapiens) (UniProt P01127) for TTACGATACGTTACACGCGTTTATAGCG [4149-8_70] , please.
Completion: < 10 nM

---

- TEST_TARGET: PDGF-BB (Homo sapiens)
- PROCEDURE_TEXT: filter
- CONDITION_SET: Bn-dU; C3 at position 24
pKd: −log10 of the molar value.
QUANTITY_KIND: pKd

Prompt: Quick check: pKd of TTACGACTACGTTACACGCGTTTTAGCG [4149-8_87] ?
Completion: > 8.00

---

- TEST_TARGET: PDGF-BB (Homo sapiens) (UniProt P01127)
- PROCEDURE_TEXT: filter
- CONDITION_SET: Bn-dU; 2'-OMe at position 15
pKd: −log10 of the molar value.
QUANTITY_KIND: pKd

Prompt: What does the data say about its pKd? Entry: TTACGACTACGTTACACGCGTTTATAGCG [4149-8_53]
Completion: > 8.00

---

- TEST_TARGET: PDGF-BB (Homo sapiens) (UniProt P01127)
- PROCEDURE_TEXT: filter
- CONDITION_SET: Bn-dU; 2'-OMe at position 3
QUANTITY_KIND: Kd

Prompt: Quick check: Kd of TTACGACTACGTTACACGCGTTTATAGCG [4149-8_44] ?
Completion: < 10 nM

---

- TEST_TARGET: PDGF-BB (Homo sapiens) (UniProt P01127)
- PROCEDURE_TEXT: filter
- CONDITION_SET: Bn-dU; 2'-OMe at position 10
QUANTITY_KIND: Kd

Prompt: I am curious: what Kd value has been reported for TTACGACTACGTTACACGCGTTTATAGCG [4149-8_50] ?
Completion: < 10 nM

---

- TEST_TARGET: PDGF-BB (Homo sapiens) (UniProt P01127)
- PROCEDURE_TEXT: filter
- CONDITION_SET: Bn-dU; 2'-OMe at position 18
QUANTITY_KIND: Kd

Prompt: Requested read-out: Kd. Entry: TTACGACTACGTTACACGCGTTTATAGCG [4149-8_56]
Completion: < 10 nM

---

- TEST_TARGET: PDGF-BB (Homo sapiens) (UniProt P01127)
- PROCEDURE_TEXT: filter
- CONDITION_SET: Bn-dU; 2'-OMe at position 24
QUANTITY_KIND: Kd

Prompt: Need Kd, item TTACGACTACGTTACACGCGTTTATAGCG [4149-8_59]
Completion: < 10 nM

---

- TEST_TARGET: PDGF-BB (Homo sapiens)
- PROCEDURE_TEXT: filter
- CONDITION_SET: Bn-dU; C3 at position 15
pKd: −log10 of the molar value.
QUANTITY_KIND: pKd

Prompt: pKd lookup needed for TTACGACTACGTTAACGCGTTTATAGCG [4149-8_78] , thanks.
Completion: > 8.00

---

- TEST_TARGET: PDGF-BB (Homo sapiens) (UniProt P01127)
- PROCEDURE_TEXT: filter
- CONDITION_SET: Bn-dU; C3 at position 17
QUANTITY_KIND: Kd

Prompt: Form field - read-out: Kd; system: PDGF-BB (Homo sapiens) (UniProt P01127); submitted item: TTACGACTACGTTACAGCGTTTATAGCG [4149-8_80]
Completion: < 10 nM

---

- TEST_TARGET: PDGF-BB (Homo sapiens) (UniProt P01127)
- PROCEDURE_TEXT: filter
- CONDITION_SET: Bn-dU; C3 at position 1
QUANTITY_KIND: Kd

Prompt: Would you kindly share the measured Kd for TACGACTACGTTACACGCGTTTATAGCG [4149-8_64] ?
Completion: < 0.01 µM

---

- TEST_TARGET: PDGF-BB (Homo sapiens)
- PROCEDURE_TEXT: filter
- CONDITION_SET: Bn-dU; 2'-OMe at position 5
QUANTITY_KIND: Kd

Prompt: Any idea what Kd came out for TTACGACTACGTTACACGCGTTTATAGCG [4149-8_46] on PDGF-BB (Homo sapiens)?
Completion: < 10 nM

---

- TEST_TARGET: PDGF-BB (Homo sapiens) (UniProt P01127)
- PROCEDURE_TEXT: filter
- CONDITION_SET: Bn-dU; 2'-OMe at position 4
QUANTITY_KIND: Kd

Prompt: Query (sequence): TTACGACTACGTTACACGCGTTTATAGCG [4149-8_45] ; field requested: Kd
Completion: < 10 nM

---

- System: VEGF-121 (Homo sapiens), P15692-9
- Sequence: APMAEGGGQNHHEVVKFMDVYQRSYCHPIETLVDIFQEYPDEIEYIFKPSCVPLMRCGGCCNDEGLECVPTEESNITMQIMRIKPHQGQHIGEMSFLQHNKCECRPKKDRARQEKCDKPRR
- PROCEDURE_TEXT: filter
- CONDITION_SET: Nap-dU at all P positions; 2'-OMe at C6,G9,C12,G15,A17,G18,Nap22,G28,G29; 0.035 nM in Table 14
QUANTITY_KIND: Kd (nM)
Unit nM implied. Number only.

Prompt: What measured Kd is associated with CCGTTCAAGTGCTTGTAGGATTTAAATGG [4867-31_192] on VEGF-121 (Homo sapiens), P15692-9?
Completion: 0.023
